Cited source for all entries: PubChem BioAssay

test system: Noggin (protein binding on small-molecule microarray); assay: Noggin binders on small-molecule microarray, primary screen, biochemical, 635/667 nm fluorescence (AID 1095); settings: 635 nm fluorescence, higher = more signal;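 further: score merges 667 nm feature fluorescence with signal to noise over triplicate slides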
# cutoff -0.2 applies to composite z-score; >= gives Yes, < gives No

The examples below pair each entry with its known result.
COMPOUND: O=C1NC(=O)C2C1C=CC(C(O)C1CCCCC1)N2Nc1ccccn1 (stereo not drawn)
QUALITATIVE_LABEL: No

COMPOUND: COc1cc(Cc2cc3c(c(-c4ccccc4)n2)[Si](C(C)C)(C(C)C)OC3)cc(OC)c1OC
QUALITATIVE_LABEL: Yes

COMPOUND: CCc1cccc(NC(=O)O[C@H]2[C@H](OC(=O)Nc3ccccc3-c3ccccc3)[C@H](OC(=O)Nc3ccccc3-c3ccccc3)[C@@H](OC)O[C@@H]2CO)c1
QUALITATIVE_LABEL: Yes

INPUT: Determine whether measured composite z-score meets or exceeds -0.2 for CC[C@H]1C2=C3C(CC[C@H]4C(OCc5ccc(F)cc5C(F)(F)F)OC[C@](C)([C@@H]34)N(C(=O)OC(C)(C)C)C2)C(COC(C)=O)C1COC(C)=O (stereo partly drawn)
OUTPUT: Yes

INPUT: Determine whether measured composite z-score meets or exceeds -0.2 for C=CCOC(=O)[C@H]1[C@@H]2C(=O)O[C@@H](c3ccccc3)[C@@H](c3ccccc3)N2[C@@H](c2ccc(OCCOC(=O)[C@H]3C[C@H]4C(=O)NCC(=O)N4[C@H]3c3cccc(OCCO)c3)cc2)[C@]12C(=O)Nc1ccc(I)cc12
OUTPUT: Yes

INPUT: Determine whether measured composite z-score meets or exceeds -0.2 for CC(C)C[C@@H]1NC(=O)[C@@H]2C[C@H](C(=O)NCCCCCNC(=O)CS)[C@H](c3ccc(O)cc3)N2C1=O
OUTPUT: Yes

INPUT: Determine whether measured composite z-score meets or exceeds -0.2 for C=CCNC(=O)[C@H]1[C@@H]2C(=O)O[C@@H](c3ccccc3)[C@@H](c3ccccc3)N2[C@@H](c2ccc(O)cc2)[C@]12C(=O)Nc1ccc(C#CCC(C(=O)OC)C(=O)OC)cc12
OUTPUT: Yes

INPUT: Determine whether measured composite z-score meets or exceeds -0.2 for O=C1OCC=C[C@H]2OC34C=CCN(Cn5nnc6ccccc65)C(=O)[C@H]3N(CCO)C(=O)[C@@H]4[C@@H]12 (stereo partly drawn)
OUTPUT: No

INPUT: Determine whether measured composite z-score meets or exceeds -0.2 for C=C[C@@H](CO)NS(=O)(=O)c1ccc(Br)cc1
OUTPUT: No

INPUT: Determine whether measured composite z-score meets or exceeds -0.2 for O=C1OC[C@@H](c2ccccc2)n2cc(/C=C/c3ccccc3)cc21
OUTPUT: No

INPUT: Determine whether measured composite z-score meets or exceeds -0.2 for COC(=O)c1ccc(OC)c(/C=C\CC(OC(=O)c2ccncc2)c2ccccc2)c1 (stereo not drawn)
OUTPUT: Yes

====

assay: cell viability in Huh7 cells, primary screen, cytotoxicity control for HCV replication inhibitor project, CellTiter-Glo luminescence, basal, 48 h (AID 1143); conditions: Huh7 HCV replicon, higher = more signal, called active from +8 up or from −8 down;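 further: Huh7 hepatoma cells carrying a hepatitis C replication reporter with no stimulus; test concentration not given here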
# cutoff -0.7 applies to z-score; >= gives fulfilled, < gives not fulfilled

INPUT: Determine whether measured z-score meets or exceeds -0.7 for COc1c(C)cc(-c2cc3c(c(CCc4ccccc4)n2)[Si](C(C)C)(C(C)C)O[C@H]3c2ccccc2)cc1C
OUTPUT: not fulfilled

INPUT: Determine whether measured z-score meets or exceeds -0.7 for C=CCC(OC(C)=O)[C@@H]1[C@@H](N(Cc2ccc(-c3ccccc3)cc2)C(=O)Cc2ccc(OC)cc2)c2cc(OCCCO)ccc2N1C(=O)Cc1ccc(OC)cc1 (stereo partly specified)
OUTPUT: not fulfilled

INPUT: Determine whether measured z-score meets or exceeds -0.7 for O=C1N(Cc2ccccc2)Cc2ccccc2C[C@@]12COC(c1ccc(OCCCO)cc1)=N2
OUTPUT: not fulfilled

INPUT: Determine whether measured z-score meets or exceeds -0.7 for CN1C(=O)C2C=CC(C(O)c3ccc(I)cc3)N(N(c3ccccc3)c3ccccc3)C2C1=O (stereo unspecified)
OUTPUT: fulfilled

INPUT: Determine whether measured z-score meets or exceeds -0.7 for COc1ccc(CCNC(=O)[C@@H]2c3ccccc3C(=O)N(Cc3cc(F)cc(C(F)(F)F)c3)[C@H]2c2ccc(CO)cc2)cc1
OUTPUT: fulfilled

====

experiment: P. aeruginosa biofilm formation inhibitors, primary screen, strain PAO1, LB-PBS medium, absorbance 600 nm (AID 1176); further: test concentration not given here; conditions: P. aeruginosa PAO1 growth/biofilm, A600, 12 h; higher = more signal
# cutoff 0.8 applies to z-score; >= gives yes (1), < gives no (0)

INPUT: Determine whether measured z-score meets or exceeds 0.8 for CC(C)c1ccc(NN2C(C(O)C3CCCCC3)C=CC3C(=O)N(c4ccccc4)C(=O)C32)cc1 (stereo not drawn)
OUTPUT: yes (1)

INPUT: Determine whether measured z-score meets or exceeds 0.8 for COc1ccc(C(=O)Nc2cccc(CN3C(=O)[C@]4(O[C@H](CC(=O)N(CCO)Cc5ccccc5)[C@@H]([Si](C)(C)c5ccc(OC)cc5)[C@@H]4C)c4ccccc43)c2)cc1
OUTPUT: no (0)

INPUT: Determine whether measured z-score meets or exceeds 0.8 for C=C(CC1([C@@H](NP(=O)(c2ccccc2)c2ccccc2)[C@H]2C[C@@H]2CCCC)CC1)c1cccc(OC)c1
OUTPUT: no (0)

INPUT: Determine whether measured z-score meets or exceeds 0.8 for C=C(COC)C(=O)CC[C@@H](OC(=O)c1ccccc1-c1ccccc1C(=O)O)c1ccccc1OCCO
OUTPUT: yes (1)

INPUT: Determine whether measured z-score meets or exceeds 0.8 for C=CCNC(=O)[C@H]1[C@@H]2C(=O)O[C@@H](c3ccccc3)[C@@H](c3ccccc3)N2[C@@H](c2ccc(O)cc2)[C@]12C(=O)Nc1ccc(C#CCC(C(=O)OC)C(=O)OC)cc12
OUTPUT: no (0)

INPUT: Determine whether measured z-score meets or exceeds 0.8 for O=C1N(Cc2ccccc2)c2ccccc2C[C@@]12N=C(c1ccc(OCCCO)cc1)O[C@H]2c1ccccc1
OUTPUT: yes (1)

INPUT: Determine whether measured z-score meets or exceeds 0.8 for [N-]=[N+]=Nc1ccccc1C[C@]1(C(=O)N2CCCCC2)N=C(c2ccc(OCCCO)cc2)O[C@H]1c1ccccc1
OUTPUT: no (0)

INPUT: Determine whether measured z-score meets or exceeds 0.8 for C=CCN1C(=O)[C@]2(O[C@H](CCO)[C@@H]([Si](C)(C)c3ccc(OC)cc3)[C@@H]2C)c2cc(N3C(=O)c4ccccc4Oc4ccccc43)ccc21
OUTPUT: no (0)

====

experiment: adipocyte viability effects, profiling panel, cell-based, 3T3-L1 adipocytes, calcein-AM fluorescence, 48 h, basal (AID 1163); conditions: 3T3-L1 adipocytes viability, higher = more signal; further: test concentration not given here
MEASURED_ENDPOINT: z-score

These recorded examples may help you get a feel for the data.
MOLECULE: COC(=O)C(CC#Cc1ccc2c(c1)[C@]1(C(=O)N2)[C@H](C(=O)N2CCCCCCC2)[C@H]2C(=O)O[C@H](c3ccccc3)[C@H](c3ccccc3)N2[C@@H]1c1ccc(OCCO)cc1)C(=O)OC
RECORDED_MEASUREMENT: 0.231
--
MOLECULE: CC(C)c1ccc(NN2C(C(O)C3=C[C@H]4C[C@@H](C3)C4(C)C)C=CC3C(=O)N(c4ccccc4)C(=O)C32)cc1 (some centres undefined)
RECORDED_MEASUREMENT: -0.395
--
MOLECULE: CC1CC/C=C\[C@H]2OC34C=CCN(CCN5CCOCC5)C(=O)[C@H]3N(C(CO)C(C)C)C(=O)[C@@H]4C2C(=O)O1 (some centres undefined)
RECORDED_MEASUREMENT: -1.26

Next molecule, please.
INPUT: // query z-score value for entry CCOC(=O)C[C@H]1[C@H](OC(=O)c2ccc(-c3ccccc3)cc2)[C@@H](NC(=O)c2ccc(-c3ccccc3)cc2)c2cc(OCCCO)ccc2N1C(=O)c1ccccc1
OUTPUT: -0.132

====

tested on: Wnt5a (protein binding on small-molecule microarray); test: Wnt5a binders on small-molecule microarray, primary screen, biophysical, 635/667 nm fluorescence (AID 1142); conditions: 635 nm fluorescence, higher = more signal;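 further: fluorescence read at 667 nm with signal to noise per printed feature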
# cutoff 0.3 applies to composite z-score; >= gives t, < gives f

The examples below pair each entry with its known result.
COMPOUND: O=C1c2ccccc2[C@](Cc2ccccc2I)(C(=O)NCCN2CCOCC2)[C@H](c2ccc(CO)cc2)N1Cc1ccccc1C(F)(F)F
QUALITATIVE_LABEL: f

COMPOUND: O=C(NC1CC1)[C@@H]1c2ccccc2C(=O)N(C2CCCCC2)[C@H]1c1ccc(CO)cc1
QUALITATIVE_LABEL: f

COMPOUND: C=C(CCCC)C(=O)CC[C@@H](OC(C)=O)c1ccc(OCCO)cc1
QUALITATIVE_LABEL: t

COMPOUND: CCCCC(=C=CC[C@@H](O)c1ccccc1OCCO)C[C@@H](O)c1ccccn1
QUALITATIVE_LABEL: f

COMPOUND: [N-]=[N+]=NCc1ccccc1[C@H]1OC(c2ccc(OCCCO)cc2)=N[C@@]1(Cc1ccccc1N=[N+]=[N-])C(N)=O
QUALITATIVE_LABEL: t

COMPOUND: COC(=O)[C@@]1(Cc2ccc(F)cc2)[C@H]2c3cc(C(=O)N4CCCC4)n(CCSCCO)c3C[C@H]2CN1C(=O)c1ccccc1
QUALITATIVE_LABEL: f

INPUT: Determine whether measured composite z-score meets or exceeds 0.3 for C=CCNC(=O)[C@@H]1[C@H]2C(=O)O[C@H](c3ccccc3)[C@H](c3ccccc3)N2[C@H](c2ccc(O)cc2)[C@@]12C(=O)N(C(=O)OCCOC)c1ccc(C#CCC(C(=O)OC)C(=O)OC)cc12
OUTPUT: f

INPUT: Determine whether measured composite z-score meets or exceeds 0.3 for O=C1C2C=CC(C(O)c3ccccn3)N(Nc3ccc([N+](=O)[O-])cc3)C2C(=O)N1c1ccccc1 (stereo not given)
OUTPUT: t

INPUT: Determine whether measured composite z-score meets or exceeds 0.3 for C=CCC(OC(C)=O)[C@@H]1[C@@H](N(Cc2ccc(-c3ccccc3)cc2)C(=O)Cc2ccc(OC)cc2)c2cc(OCCCO)ccc2N1C(=O)Cc1ccc(OC)cc1 (stereo not given in full)
OUTPUT: f
